tested-on: Dual specificity protein kinase CLK1 (Homo sapiens)
Sequence (P49759 whole entry): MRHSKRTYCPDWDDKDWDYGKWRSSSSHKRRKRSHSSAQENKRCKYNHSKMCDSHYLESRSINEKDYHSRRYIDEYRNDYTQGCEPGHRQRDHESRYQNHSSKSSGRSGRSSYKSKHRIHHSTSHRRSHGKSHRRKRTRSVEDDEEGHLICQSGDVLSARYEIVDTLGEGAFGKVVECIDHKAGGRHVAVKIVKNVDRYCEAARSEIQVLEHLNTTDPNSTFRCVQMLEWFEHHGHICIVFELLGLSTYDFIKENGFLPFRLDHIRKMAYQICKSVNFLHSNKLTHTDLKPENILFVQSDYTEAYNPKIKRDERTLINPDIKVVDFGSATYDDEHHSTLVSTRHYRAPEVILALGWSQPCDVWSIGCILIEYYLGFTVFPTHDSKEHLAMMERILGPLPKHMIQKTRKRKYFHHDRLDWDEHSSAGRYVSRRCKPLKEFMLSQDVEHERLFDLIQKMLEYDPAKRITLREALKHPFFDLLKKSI
protocol-summary: Inhibition of human 130-end recombinant CLK1 assessed as remaining activity using ERMRPRKRQGSVR as substrate by [gamma-32P]ATP binding based scintillation counting based analysis
property: log10(IC50) (log10 of the value in nM)
# values: log10(IC50), units nM

Prompt: Write down the reported log10(IC50) of Fc1cc(F)cc(CNc2cnc3[nH]cc(-c4ccc(C(F)(F)F)cc4)c3c2)c1 , test system: Dual specificity protein kinase CLK1 (Homo sapiens).
Completion: 2.66

Prompt: Try COc1ccc(-c2c[nH]c3ncc(NCc4cc(F)cc(F)c4)cc23)cc1 next.
Completion: 1.18

Prompt: Please answer likewise for Fc1cc(F)cc(CNc2cnc3[nH]cc(-c4cccnc4)c3c2)c1
Completion: 1.26

Prompt: Now the compound CN1CCN(c2ccc(CNc3cnc4[nH]cc(-c5cccnc5)c4c3)cc2)CC1
Completion: 1.11

Prompt: Moving on to COc1cncc(-c2c[nH]c3ncc(NCc4cc(F)cc(F)c4)cc23)c1
Completion: 1.20

Prompt: Same read-out for Fc1ccc(/C=N/c2cnc3[nH]cc(-c4cncc(F)c4)c3c2)cc1 ?
Completion: 2.71

----------
tested-on: Dual specificity tyrosine-phosphorylation-regulated kinase 1A (Homo sapiens)
protocol-summary: Inhibition of human full length recombinant DYRK1A assessed as remaining activity using RRRFRPASPLRGPP as substrate at 100 nM by [gamma-32P]ATP binding based scintillation counting based analysis relative to control
property: Activity (%)
Could you give me the number in %? Just the number is fine.

Previously resolved entries follow.
>>> print(df.to_string())
                         structure_notation  output_unit  result
0  Fc1cccc(CNc2cnc3[nH]cc(-c4cccnc4)c3c2)c1            %      98
1  Fc1cc(F)cc(CNc2cnc3[nH]cc(-c4ccc5ccccc5c4)c3c2)c1            %     106
2  COc1cncc(-c2c[nH]c3ncc(NC(=O)c4ccc(F)cc4)cc23)c1            %      81
3  COc1ccc(-c2cnc3ccc(NCc4ccc(N(C)C)cc4)cn23)cc1            %     101
4  Fc1ccc(/C=N/c2cnc3[nH]cc(-c4cncc(F)c4)c3c2)cc1            %      86

Prompt: I would be grateful if you could share the reported Activity for COc1cncc(-c2c[nH]c3ncc(NCc4ccc(F)cc4)cc23)c1 .
Completion: 88

Prompt: Try NC(=O)c1cccc(-c2c[nH]c3ncc(NCc4cc(F)cc(F)c4)cc23)c1 next.
Completion: 105

Prompt: Input COc1cncc(-c2c[nH]c3ncc(NCc4cc(F)cc(F)c4)cc23)c1
Completion: 81

Prompt: Then what about the molecule CN1CCN(c2ccc(CNc3cnc4[nH]cc(-c5cccnc5)c4c3)cc2)CC1 ?
Completion: 85

Prompt: // repeat for O=C(Nc1cc(C(F)(F)F)cc(C(F)(F)F)c1)Nc1cnc2[nH]cc(-c3cncc(F)c3)c2c1 and report
Completion: 106

----------
protocol-summary: Metabolic stability in human liver microsomes assessed as clearance at 10 uM incubated for 5 mins in the presence of NADPH-generating system by LC-MS/MS analysis
Format: ADME, Microsome
property: CLH (mL/min/g)
Unit mL/min/g implied. Number only.

Look over these answered cases.
>>> print(df.to_string())
                         structure_notation  output_unit  result
0  COc1cncc(-c2c[nH]c3ncc(NCc4ccc(F)cc4)cc23)c1     mL/min/g    76.8
1  COc1cncc(-c2c[nH]c3ncc(NC(=O)c4ccc(Cl)cc4OC)cc23)c1     mL/min/g      15
2  CN1CCN(c2ccc(CNc3cnc4[nH]cc(-c5cncc(F)c5)c4c3)cc2)CC1     mL/min/g    79.2

Note: attention shifts to another entry.
Prompt: # get_value(readout='CLH', item= COc1cncc(-c2c[nH]c3ncc(NCc4cc(F)cc(F)c4)cc23)c1 )
Completion: 88.7

----------
tested-on: Dual specificity tyrosine-phosphorylation-regulated kinase 1A (Homo sapiens, UniProt Q13627)
protocol-summary: Inhibition of human full length recombinant DYRK1A assessed as remaining activity using RRRFRPASPLRGPP as substrate at 100 nM by [gamma-32P]ATP binding based scintillation counting based analysis relative to control
This section presents compounds with their documented Activity values.
Could you give me the number in %? Just the number is fine.

Prompt: For COc1ccc(-c2c[nH]c3ncc(NCc4cc(F)cc(F)c4)cc23)cc1 , what is its reported Activity?
Completion: 40

Prompt: For Fc1cc(F)cc(CNc2cnc3[nH]cc(-c4cc5ccccc5s4)c3c2)c1 then?
Completion: 108

Prompt: And the next one, CC(C)c1cccc(CNc2cnc3[nH]cc(-c4cccnc4)c3c2)c1 ?
Completion: 108

Prompt: And the next one, CCN(CC)c1ccc(CNc2cnc3[nH]cc(-c4cccnc4)c3c2)cc1 ?
Completion: 98

Prompt: Record: O=C(Nc1cnc2[nH]cc(-c3cccnc3)c2c1)c1ccc(C(F)(F)F)c(F)c1
Completion: 87

----------
Entries and their measured Selectivity Index follow.
Organism: Homo sapiens
protocol-summary: Selectivity index, ratio of IC50 for inhibition of human full length recombinant DYRK1A to IC50 for inhibition of human 130-end recombinant CLK1
Please give the numeric answer without any surrounding text.

# annotated cases, reported Selectivity Index shown
                         structure_notation  result
0  Fc1cccc(CNc2cnc3[nH]cc(-c4cccnc4)c3c2)c1    31.6
1  O=C(Nc1cnc2[nH]cc(-c3cccnc3)c2c1)c1ccc(F)cc1    72.6
2  CCN(CC)c1ccc(CNc2cnc3[nH]cc(-c4cccnc4)c3c2)cc1    22.4
3  CN1CCN(c2ccc(CNc3cnc4[nH]cc(-c5cccnc5)c4c3)cc2)CC1     135

Prompt: What does the data say about its Selectivity Index? Entry: CC(C)(C)c1cccc(CNc2cnc3[nH]cc(-c4cccnc4)c3c2)c1
Completion: 21.9

Prompt: Another compound to check: Nc1ccc(-c2c[nH]c3ncc(NCc4cc(F)cc(F)c4)cc23)cc1
Completion: 6.3

Prompt: Now the compound CC(C)c1cccc(CNc2cnc3[nH]cc(-c4cccnc4)c3c2)c1
Completion: 117

Prompt: Same read-out for Nc1ncc(-c2c[nH]c3ncc(NCc4cc(F)cc(F)c4)cc23)cn1 ?
Completion: 7.8

Prompt: And what about the compound Fc1cc(F)cc(CNc2cnc3[nH]cc(-c4cccnc4)c3c2)c1 ?
Completion: 16

Prompt: And O=C(Nc1cnc2[nH]cc(-c3cncc(F)c3)c2c1)c1ccc(F)cc1 ?
Completion: 45.3

----------
protocol-summary: Half life in Balb/c mouse at 10 mg/kg, po measured upto24 hrs by LC/MS/MS analysis
Format: ADME, organism-based
applied-conditions: in vivo, time 24 hrs
property: half-life (h)
Give your result in h as a bare value.

Prompt: Query (compound): CN1CCN(c2ccc(C(=O)Nc3cnc4[nH]cc(-c5cncc(F)c5)c4c3)cc2)CC1 ; field requested: half-life
Completion: 5.29

----------
protocol-summary: Metabolic stability in human liver microsomes assessed as clearance at 10 uM incubated for 5 mins in the presence of NADPH-generating system by LC-MS/MS analysis
Assay type: ADME, Microsome
property: CLH

In the examples that follow, each entry is paired with its recorded CLH.
                         structure_notation  property         result
0  COc1cncc(-c2c[nH]c3ncc(NCc4ccc(N5CCOCC5)cc4)cc23)c1       CLH  65.4 mL/min/g
1  COc1cncc(-c2c[nH]c3ncc(NC(=O)c4ccc(F)cc4)cc23)c1       CLH  13.8 mL/min/g
2  COc1cncc(-c2c[nH]c3ncc(NCc4cccc(F)c4)cc23)c1       CLH  80.4 mL/min/g
3  COc1cc(Cl)ccc1C(=O)Nc1cnc2[nH]cc(-c3cncc(F)c3)c2c1       CLH  < 12 mL/min/g

Prompt: State the recorded CLH for this entry: O=C(Nc1cnc2[nH]cc(-c3cncc(F)c3)c2c1)c1ccc(F)cc1
Completion: < 12 mL/min/g

----------
tested-on: Dual specificity tyrosine-phosphorylation-regulated kinase 1A (Homo sapiens, UniProt Q13627)
protocol-summary: Inhibition of human full length recombinant DYRK1A assessed as remaining activity using RRRFRPASPLRGPP as substrate by [gamma-32P]ATP binding based scintillation counting based analysis
# label = true (1) if IC50 < 2000 nM else false (0)

                         structure_notation  group_label
0  O=C(Nc1cnc2[nH]cc(-c3cccnc3)c2c1)c1ccc(F)cc1    false (0)
1  COc1ccc(-c2cnc3ccc(NCc4cc(F)cc(F)c4)cn23)cc1     true (1)
2  CCN(CC)c1ccc(CNc2cnc3[nH]cc(-c4cccnc4)c3c2)cc1     true (1)
3  Fc1cc(F)cc(CNc2cnc3[nH]cc(-c4cc5ccccc5s4)c3c2)c1    false (0)

Here is another compound to look at.
Prompt: In plain terms, does NC(=O)c1cccc(-c2c[nH]c3ncc(NCc4cc(F)cc(F)c4)cc23)c1 come in under 2000 nM for IC50?
Completion: false (0)
